Tested on: UO-31 renal
Experiment: NCI tumour cell line growth inhibition, 48 h
MEASURED ENDPOINT: TGI

Provide each entry's TGI from the list below.
1. Cc1ccc(/C=C/C(=O)c2sc(-c3nc(C)c(C(=O)/C=C/c4ccc(C)cc4)s3)nc2C)cc1
2. CC1CCC(=O)C(C(=O)CC2CC(=O)N(C)C(=O)C2)C1 (configuration not stated)

1: > 100 µM; 2: > 100 µM

Provide each entry's TGI from the list below.
1. CCOC1OC(=O)c2cc3ccc4c(c3c(-c3ccc5c(c3)OCO5)c21)OCO4 (configuration not stated)
2. CN1CCOC(c2ccccc2)O1 (configuration not stated)
3. COc1cc2c3c(n(C)c(=O)c2cc1OC)-c1cc2c(cc1/C3=C\CN)OCO2
4. CC(=O)OC12C=CC(=O)N1c1ccccc1C(=O)O2 (configuration not stated)
5. Clc1ccc(C2C3COc4ccccc4C3=NN2c2ccccc2)cc1 (configuration not stated)
6. OC1C#CCSCC#C/C=C\1 (configuration not stated)
7. Oc1cccnc1[Se]

1. > 100 µM
2. > 100 µM
3. > 41.1 µM
4. > 100 µM
5. > 100 µM
6. > 100 µM
7. > 100 µM

Provide each entry's TGI from the list below.
1. CN1C(=O)N(C)C2C1NN=c1s/c(=C\c3ccc(Cl)cc3Cl)c(=O)n12 (configuration not stated)
2. COc1c(OC[C@H](O)CN2CCOCC2)ccc2c3n(c(=NC(=O)c4cccnc4C)nc12)CCN3
3. CCOC(=O)NC(Nc1ccc(S(=O)(=O)Nc2nc(C)cc(C)n2)cc1)(C(=O)OCC)C(F)(F)F (configuration not stated)

> 71.8 µM
> 50 µM
> 100 µM

* * *

Tested on: SK-MEL-28 melanoma
Assay: NCI tumour cell line growth inhibition, 48 h
Where a SMILES comes first, the peptide text is derived from it. The star is where a group is joined. Cbz = O=C(OCc1ccccc1)*; CH2Cl = ClC*
MEASURED ENDPOINT: log10(TGI) (log10 of the value in µM)
Please be aware that the numbers have been log10-transformed from TGI in µM.

Past entries and their recorded results:
> print(dat)
                                   molecule       tested.system  measured.endpoint  measured.number
1              Cc1ccnc2[nH]c3ccccc3c(=O)c12  SK-MEL-28 melanoma         log10(TGI)             1.68
2  C=C(Cl)C(Br)(CCl)CCC(Br)C(C)(C)Cl (centres undefined)  SK-MEL-28 melanoma         log10(TGI)             1.15
3  COc1cc(-c2cc(-c3cc4c([nH]c5ccccc54)c(-c4cc(OC)c(OC)c(OC)c4)n3)cc(-c3ccccc3)n2)cc(OC)c1OC  SK-MEL-28 melanoma         log10(TGI)             1.48
4     O=C1CCCC1CN1CCCC1 (centres undefined)  SK-MEL-28 melanoma         log10(TGI)             1.44

Provide each entry's log10(TGI) from the list below.
1. CN(C)CCCN1CCC2(CCC(C(C)(C)C)CC2)CC1
2. CCCCCCOC(=O)/C=C/[C@]1(CO)C/C(=C/CC(C(C)C)C(C)C)C(=O)O1
3. CC(C)CC(NC(=O)OCc1ccccc1)C(=O)NC(Cc1ccccc1)C(=O)CCl (stereo not drawn) (Cbz-Leu-Phe-CH2Cl; configuration not given here)
4. COc1ccc2[nH]cc(C3(c4c[nH]c5ccc(OC)cc45)C(=O)Nc4ccc(F)cc43)c2c1

0.53
1.37
0.60
0.83

The origin of these recorded values is PubChem BioAssay (NCI).
